src = patent US4496578A

# Test system: angiotensin I-converting enzyme
# Test details: Percent inhibition of pressor response to angiotensin I in unanesthetized rats after oral administration (ACE inhibition in vivo)
# Design: species or system Male Wistar strain rats
# Protocol conditions: 5 min after oral dose; mg/kg: 2 1.8, 2A 1.3, 2B 1.8, 22 1.5, 22A 1.0, 22B 1.4, 32 1.7, 32C 1.3, 64 1.9
# Experimental: As recently it has been clear that the compounds inhibiting angiotensin I-converting enzyme may be the curative potency against both renal hypertension and essential hypertension, the compounds of this invention are evaluated as antihypertensive agents by the following method. Male Wistar strain rats weighing 200-300 g were used. Under ether anesthesia, polyethylene cannulae are inserted into carotid artery and jugular vein. […]
So I've got a bunch of compounds here, and I need their Inhibition (%) of pressor response to angiotensin I values.
Give just the numeric value; % need not be written.

Exercise: Return reported Inhibition (%) of pressor response to angiotensin I; argument: C[C@H](CSC(=O)c1ccccc1)C(=O)N1C(C(=O)O)CCC1c1ccccc1O (stereo partly drawn)
Key: 7.9

Exercise: Which Inhibition (%) of pressor response to angiotensin I is listed for C[C@H](CS)C(=O)N1C(C(=O)O)CCC1c1ccccc1O (stereo partly drawn) ?
Key: 20.0

Exercise: Using the record for C[C@H](CS)C(=O)N1CSC[C@H]1C(=O)O [Compound 22A] , report its Inhibition (%) of pressor response to angiotensin I.
Key: 34.0

Exercise: Give its Inhibition (%) of pressor response to angiotensin I value. Item: C[C@H](CSC(=O)c1ccccc1)C(=O)N1CSC[C@H]1C(=O)O [Compound 22B]
Key: 45.4

Exercise: Look at this compound and give its reported Inhibition (%) of pressor response to angiotensin I. Cc1ccc(C(=O)SC[C@@H](C)C(=O)N2CSC[C@H]2C(=O)O)cc1
Key: 45.2

Exercise: I have this compound here, C[C@H](CSC(=O)c1ccccc1)C(=O)N1CSC[C@H]1C(=O)OCOC(=O)C(C)(C)C , and I need its recorded Inhibition (%) of pressor response to angiotensin I.
Key: 30.0

Exercise: Dear colleague, I am looking for the recorded Inhibition (%) of pressor response to angiotensin I of the following compound: Cc1ccc(C(=O)SC[C@@H](C)C(=O)N2C(C(=O)O)CCC2c2ccccc2O)cc1 (stereo partly drawn)
Key: 39.3

Exercise: Inhibition (%) of pressor response to angiotensin I for CC(=O)Oc1ccccc1C1SC[C@@H](C(=O)O)N1C(=O)CCSC(C)=O (stereo partly drawn) ?
Key: 40.2

Exercise: Please report the recorded Inhibition (%) of pressor response to angiotensin I for O=C(O)[C@@H]1CSC(c2ccccc2O)N1C(=O)CCS (stereo partly drawn) [Compound 32C] .
Key: 53.3
